# System: SDH-WT cells
# protocol.text: Cellular / differential toxicity assay (CellTiter-Glo, 3 days)
# Type: cell-based, murine
# condition.info: toxicity, SDH-WT cells, 3 days, CellTiter-Glo; read-out: EC50 (uM) SDH-WT
# Procedure: Identification of compounds that target specifically SDH-deficient cells was done by screening a library of small-molecule by using a differential toxicity screen with SDHB-proficient vs. SDHB-deficient cells (the […] cells were described in Cardaci 2015). […] Incubate for 3 days at 37° C. in 5% CO2 tissue culture incubator. • Day 4: Check viability of cells by adding CTG reagent and read luminescence in plate reader […]

molecule: C=CCNc1ncnc2c1sc1nc3c(cc12)COC(C)(C)C3
study.target: SDH-WT cells
EC50: > 10 µM

molecule: CCCCNc1ncnc2c1sc1nc3c(cc12)COC(C)(C)C3 [Compound 294]
study.target: SDH-WT cells
EC50: > 10 µM

molecule: Cc1nc(NC(C)CCc2ccccc2)c2sc3nc4c(cc3c2n1)COC(C)(C)C4 (centres unmarked) [Compound 265]
study.target: SDH-WT cells
EC50: 3 to 10 µM

molecule: CCCCNc1ncnc2c1sc1nc3c(cc12)COC(C)(C)C3 [Compound 217]
study.target: SDH-WT cells
EC50: 3 to 10 µM

molecule: Cc1nc(NC(C)CCc2ccccc2)c2sc3nc4c(cc3c2n1)COC(C)(C)C4 (centres unmarked) [Compound 252]
study.target: SDH-WT cells
EC50: > 10 µM

====

# Test system: SDH-KO, Murine HRAS-transformed, SDHB-deficient cells
# protocol.text: Toxicity assay with or without rotenone
# Assay type: cell-based
# condition.info: Mus musculus, with 25 nM rotenone, 72 hours, read-out: EC50 (nM) with Rotenone
# Protocol: Toxicity assay: Cells were growing in 96 well plates in DMEM F12 with 17 mM glucose, 0.5 mM Sodium Pyruvate, 1 mM Glutamine and 3% FBS. The cells were treated with the indicated compounds (10 different concentrations) with or without 25 nM rotenone. Viability was determined after 72 hours of treatment using CellTiter Glo reagent (Promega). EC50 was calculated using Prism software.

smiles.structure: CC1(C)Cc2nc3sc4c(NCCc5ccc6[nH]cnc6c5)ncnc4c3cc2CO1
EC50: 3 nM

====

# Test system: SDH-KO-HRAS cells (SDHB-deficient)
# protocol.text: Cellular / differential toxicity assay (CellTiter-Glo, 3 days)
# Assay type: cell-based, murine
# condition.info: Mus musculus, 72 h, toxicity, SDH-KO cells, 3 days, CellTiter-Glo; read-out: EC50 (uM) SDH-KO-HTAS-C17
result.type: EC50

molecule: COCc1c2c(nc3sc4c(NCCc5ccc6[nH]cnc6c5)ncnc4c13)CC(C)(C)OC2
result.type: EC50
result: < 1 µM
--
molecule: CC1(C)Cc2nc3sc4c(NCCCN5CCOCC5)ncnc4c3cc2CO1
result.type: EC50
result: > 10 µM
--
molecule: Cc1nc(N2CCC(C)CC2)c2sc3nc4c(cc3c2n1)COC(C)(C)C4
result.type: EC50
result: > 10 µM
--
molecule: CC(=O)OC1CCc2nc3sc4c(NCCc5ccc6[nH]cnc6c5)ncnc4c3cc2C1 (stereo not drawn)
result.type: EC50
result: < 1 µM
--
molecule: CC(C)CNc1ncnc2c1sc1nc3c(cc12)COC(C)(C)C3
result.type: EC50
result: > 10 µM
--
molecule: COc1ccc(Nc2ncnc3c2sc2nc4c(cc23)COC(C)(C)C4)cc1OC
result.type: EC50
result: > 10 µM
--
molecule: Cc1nc(NN)c2sc3nc4c(cc3c2n1)COC(C)(C)C4
result.type: EC50
result: > 10 µM
--
molecule: c1cnc2sc3c(NCCc4ccc5[nH]cnc5c4)nc(C4CCCC4)nc3c2c1
result.type: EC50
result: 3 to 10 µM
--
molecule: CC(C)c1nc(NCCc2ccc3[nH]cnc3c2)c2sc3ncccc3c2n1
result.type: EC50
result: 3 to 10 µM
--
molecule: CCC(C)Nc1nc(C)nc2c1sc1nc3c(cc12)COC(C)(C)C3 (stereo not drawn)
result.type: EC50
result: 3 to 10 µM
--
molecule: CCCCN(CC)c1ncnc2c1sc1nc3c(cc12)COC(C)(C)C3
result.type: EC50
result: 3 to 10 µM
--
molecule: CC(=O)OCC(=O)Cc1ccc(CCNc2ncnc3c2sc2nc4c(cc23)COC(C)(C)C4)cc1[N+](=O)[O-]
result.type: EC50
result: 3 to 10 µM
